test: Toxicity at human RBC assessed as haemolysis at 50 uM; format: cell-based; settings: erythrocyte
property: Activity

Below, each entry is followed by its recorded Activity result.
| compound | Activity |
| --- | --- |
| Cl.NC1=NC(c2ccc([N+](=O)[O-])cc2)NC(NCCc2ccc(Cl)c(Cl)c2)=N1 (stereo not drawn) | Non-toxic |
| CC1(C)N=C(N)N=C(NCCCSc2ccc(Cl)cc2)N1.Cl | Non-toxic |
| Cl.NC1=NC(c2ccccc2)NC(NCCCOc2ccc(Cl)cc2)=N1 (stereo not drawn) | Non-toxic |
| Cl.NC1=NC(c2ccccc2)NC(NCCCOc2ccccc2F)=N1 (stereo not drawn) | Non-toxic |
| CC1(C)N=C(N)N=C(NCc2ccccc2)N1.Cl | Non-toxic |
| Cl.NC1=NC(c2ccco2)NC(NCCCOc2ccc(Cl)cc2)=N1 (stereo not drawn) | Non-toxic |

Provide only the value of recorded Activity for CC1(C)N=C(N)N=C(NCCc2ccc(Cl)cc2)N1.Cl
Non-toxic

Provide only the value of recorded Activity for CC1(C)N=C(N)N=C(NCCCCOc2ccc(Cl)cc2)N1.Cl
Non-toxic

Provide only the value of recorded Activity for Cl.NC1=NC(c2ccc(F)cc2)NC(NCCCOc2ccc(Cl)cc2)=N1 (stereo not drawn)
Non-toxic

Provide only the value of recorded Activity for Cl.NC1=NC(c2ccccc2)NC(NCCCOc2ccc(Cl)cc2Cl)=N1 (stereo not drawn)
Non-toxic

Provide only the value of recorded Activity for Cl.NC1=NC2(CCCCC2)NC(NCCCOc2ccc(Cl)cc2)=N1
Non-toxic

Provide only the value of recorded Activity for Cl.NC1=NC(C2CCCCC2)NC(NCCCOc2ccc(Cl)cc2)=N1 (stereo not drawn)
Non-toxic

Provide only the value of recorded Activity for Cl.NC1=NC(c2ccccc2)NC(NCCCOc2c(Cl)cc(Cl)cc2Cl)=N1 (stereo not drawn)
Non-toxic

The measurements presented in this section are drawn from ChEMBL document CHEMBL1781907.
